assayComment: qHTS RealTime-Glo MT Cell Viability Assay in HEK293 cells - 16 hour (AID 1224872); further: nearly all actives have a fitted effect of over 50% in size
runConditions: RealTime-Glo luminescence; series mostly up to 76.8 µM
Results filed as inconclusive are left out. Active and inactive are the calls of the source. The call rests on the fitted dose curve; in most records, active means well fitted cell-killing curve with a large enough effect in the repeat runs; inconclusive means weak or mixed curves, or effect the other way; inactive means flat fitted curve, though single readings scatter.
Allowed answers: y (active), n (inactive)

Q) Any idea what this test logged for Nc1nc(N)c2nc(-c3ccccc3)c(N)nc2n1 ?
A) n

Q) How about this compound: COC(=O)OC
A) n

Q) How about O=c1c(O)c(-c2ccc(O)c(O)c2)oc2cc(O)cc(O)c12 ?
A) n

Q) Would you kindly repeat that for CC/C(C)=N/O ?
A) n

Q) For CC(C)(CO)CO then?
A) n

Q) Query CN1CCCC1=O next
A) n

Q) Then this compound: Cc1ccc(C(C)C)cc1
A) n

Q) Now consider CC(C)c1ccc(C(C)C)cc1 .
A) n

Q) Param item: CCCCCCCCCCCCCC(=O)O
A) n

Q) Ok, now CC(=O)OC[C@H]1O[C@@](COC(C)=O)(O[C@H]2O[C@H](COC(C)=O)[C@@H](OC(C)=O)[C@H](OC(C)=O)[C@H]2OC(C)=O)[C@@H](OC(C)=O)[C@@H]1OC(C)=O
A) n

Q) Follow-up entry: CC1(C)C(=O)N(Cl)C(=O)N1Cl
A) n

Q) Now consider COC(=O)CCCCC(=O)OC and answer again.
A) n

Q) Similarly, COc1ccc(N)c(OC)c1 ?
A) n

Q) OCCOCCOCCOCCOCCO , same question.
A) n

Q) Query CCN(CC)CCNC(=O)c1ccc(N)cc1 next
A) n

Q) Then this compound: OC[C@H]1O[C@@H](Oc2ccc(O)cc2)[C@H](O)[C@@H](O)[C@@H]1O
A) n

Q) Then this compound: C1CCCNCC1
A) n

Q) Quick one: CCCCCCCC(=O)O
A) n

Q) Same lookup for CCCOCC(C)O (stereo unspecified) , please.
A) n

Q) Same thing, different compound: Cc1cccc(C)c1[N+](=O)[O-]
A) n

Q) Now the same for COc1c(Cl)ccc(Cl)c1C(=O)O
A) n

Q) Quick one: Cc1nnc(NS(=O)(=O)c2ccc(N)cc2)s1
A) n

Q) And then CCCCCC(C)=O , what is it?
A) n

Q) What about NC(=O)NC(N)=O ?
A) n

Q) Same question for NC(=O)c1ncn([C@@H]2O[C@H](CO)[C@@H](O)[C@H]2O)n1 please.
A) n

Q) And then CC/C=C(\C(=O)N[C@@H]1C(=O)N2C(C(=O)OCOC(=O)C(C)(C)C)=C(COC(N)=O)CS[C@H]12)c1csc(N)n1 , what is it?
A) n

Q) // query: CN=C(NC#N)NCCSCc1nc[nH]c1C
A) n

Q) How about this compound: N#CCC(=O)O
A) n

Q) Same again, this time with N[C@@H](Cc1cc(I)c(Oc2ccc(O)c(I)c2)c(I)c1)C(=O)O
A) n

Q) // same read-out, input: c1cnc2c(c1)ccc1cccnc12
A) y

Q) Same question, CCCOC(=O)NCCCN(C)C this time
A) n
